Experiment: chemical genetic growth profiling, strain panel (AID 1159580);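 also: tested at 20 µM; growth read once vehicle control cultures reached saturation at 30 °C; 1 = growth at the plate median or of vehicle wells; lower values mean less growth of the strain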
Conditions: S. cerevisiae deletion strains, growth OD, locus YAL013W, strain DEP1, active compounds read low
In all, about 5,500 compounds went through this assay and about 2,000 (36%) were called active. Inconclusive results (about 18%) are left out. The list shows a part of the results.
// values below are reported normalized growth

# count of solved cases: 3
| MOLECULE | normalized growth |
| --- | --- |
| Cc1oc(C(C)(C)C)cc1C(=O)Nc1ccc([N+](=O)[O-])cc1 | 0.903 (active) |
| CNC(=O)O/N=C(\C)SC | 1 (inactive) |
| Cc1ccc(C)n1-c1ccc(C(=O)NNS(=O)(=O)c2ccc(Cl)cc2)cc1 | 1.01 (inactive) |

## Input What value of normalized growth has been recorded for this entry: Oc1cc(O)c2c(c1)OC(c1ccc(O)c(O)c1)C(O)C2 (stereo unspecified)
## Output 1 (inactive)

## Input Ok, now `Oc1ccc2c(c1)O[C@H](c1ccc(O)c(O)c1)[C@@H](O)C2`
## Output 1.03 (inactive)

## Input Ok, now O=C1c2c(O)cc(O)cc2OC(c2ccc(O)c(O)c2)C1O (stereo unspecified)
## Output 1.03 (inactive)

---

// values below are reported normalized growth
Assay: chemical genetic growth profiling, strain panel (AID 1159580);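 also: tested at 20 µM; growth read once vehicle control cultures reached saturation at 30 °C; 1 = growth at the plate median or of vehicle wells; lower values mean less growth of the strain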
Settings: S. cerevisiae deletion strains, growth OD, locus YKL160W, strain elf1, active compounds read low
About 2,000 (36%) of roughly 5,500 compounds were called active. Roughly 18% stayed inconclusive and do not appear here. The list shows a part of the results.
Answer with the value's number alone.

# count of solved cases: 3
| MOLECULE | normalized growth |
| --- | --- |
| OCCc1ccccc1 | 0.996 |
| COc1cc(CNC(=O)CCCC/C=C/C(C)C)ccc1O | 0.97 |
| COc1cc([C@@H]2c3cc4c(cc3C(OC3O[C@@H]5COC(C)O[C@H]5[C@H](O)[C@H]3O)C3COC(=O)[C@@H]32)OCO4)cc(OC)c1O (stereo partly specified) | 1.02 |

## Input What value of normalized growth has been recorded for this entry: `O=C(Oc1cc(OC(=O)c2ccccc2)c2c(c1)O[C@H](c1ccc(OC(=O)c3ccccc3)c(OC(=O)c3ccccc3)c1)[C@@H](OC(=O)c1ccccc1)C2)c1ccccc1`
## Output 1.01

## Input Ok, now `O=C(O)/C=C/c1ccc(O)c(O)c1`
## Output 1

## Input Ok, now CCC(C)C(=O)O[C@@H]1C[C@@]2(C)[C@H](c3ccoc3)OC(=O)CC23OC2(C)O[C@]14[C@]1(C)[C@@H](CC(=O)OC)C5(C)CC1(O)[C@](O)(C5OC(=O)C1(C)OC1C)[C@@H](OC(C)=O)[C@]34O2 (stereo partly specified)
## Output 1.02

## Input Ok, now C=C1C2CC[C@@]3(C)[C@H](c4ccoc4)OC(=O)C[C@]13O[C@H]1CC(=O)C(C)(C)[C@H](C(OC(C)=O)C(=O)OC)[C@@]21C (stereo partly specified)
## Output 0.976

## Input Ok, now CCC(C)C(=O)O[C@@H]1C[C@@]2(C)[C@H](c3ccoc3)OC(=O)CC23OC2(C)OC34[C@H](OC(=O)C(C)C)[C@@]3(O)[C@@H](OC(=O)C5(C)OC5C)[C@@]5(C)C[C@]3(O)[C@@](C)([C@H]5CC(=O)OC)C14O2 (stereo partly specified)
## Output 0.966

## Input Ok, now `O=C(O)CCCc1ccccc1`
## Output 0.969

## Input Ok, now COC(=O)C[C@H]1C2(C)CC34OC5(C)O[C@@]6([C@H](OC(C)=O)C(OC(C)=O)[C@]7(C)C(/C(=C(/O)C(C)C)C(=O)O[C@H]7c7ccoc7)[C@@]6(O5)[C@H](OC(C)=O)[C@@]3(O)C2OC(=O)C(C)C)[C@]14C (stereo partly specified)
## Output 1.01

## Input Ok, now COc1ccc(C2CNC(=O)C2)cc1OC1CCCC1 (stereo unspecified)
## Output 0.998

## Input Ok, now c1ccc2c(c1)CCCC2C1=NCCN1 (stereo unspecified)
## Output 1.03

## Input Ok, now COc1cc([C@@H]2c3cc4c(cc3[C@@H](O)C3COC(=O)C32)OCO4)cc(OC)c1O (stereo partly specified)
## Output 0.973

## Input Ok, now C[C@]12CCC(=O)C=C1C=CC1C2CC[C@@]2(C)C1CC[C@@]2(O)CCC(=O)O (stereo partly specified)
## Output 0.996

## Input Ok, now `N[C@@H](Cc1ccc(N(CCCl)CCCl)cc1)C(=O)O`
## Output 0.968

## Input Ok, now COc1ccc(OC)c(C(O)CNC(=O)CN)c1 (stereo unspecified)
## Output 1
